Tested on: MDR1 (P-glycoprotein)
test: Pgp Liability MDR1 Er
Assay type: in vitro ADME
reported-conditions: dog, MDCK-MDR1
measurement-label: efflux ratio

Task item: Let me know recorded efflux ratio for `C[C@H]1C[C@H]2CSC(N)=N[C@@]2(c2nc(NC(=O)c3cnc(OC(F)F)cn3)cs2)CO1` , thanks.
Reply: < 2.5

###

system-tested: BACE1 (Homo sapiens (Human))
Sequence (P56817 46-457): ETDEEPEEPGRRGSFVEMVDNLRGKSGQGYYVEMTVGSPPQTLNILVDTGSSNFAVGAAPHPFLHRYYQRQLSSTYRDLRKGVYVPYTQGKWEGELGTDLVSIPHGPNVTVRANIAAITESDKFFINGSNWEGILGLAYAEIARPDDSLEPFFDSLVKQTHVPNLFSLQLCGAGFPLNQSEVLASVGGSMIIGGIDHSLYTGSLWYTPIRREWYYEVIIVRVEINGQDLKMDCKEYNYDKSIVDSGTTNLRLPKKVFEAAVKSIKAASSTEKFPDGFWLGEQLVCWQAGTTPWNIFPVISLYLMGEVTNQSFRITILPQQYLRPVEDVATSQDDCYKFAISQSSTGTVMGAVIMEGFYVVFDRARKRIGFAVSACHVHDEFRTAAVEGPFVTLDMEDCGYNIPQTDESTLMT
measurement-label: pIC50
Worth noting: pIC50 values are minus log10 of concentrations stated in mol/L.

Task item: Determine reported pIC50 for `C[C@H]1C[C@H]2CSC(N)=N[C@@]2(c2nc(NC(=O)c3ccn(C(F)F)n3)cs2)CO1` ; test system: BACE1 (Homo sapiens (Human)).
Reply: 9.05
